Test target: UniProt Q5VWK5
Test method notes: Functional inhibition of IL-23 mediated STAT3 signalling (phospho-STAT3 MSD) in DB cells
Format: cell-based
Assay context: Table 3-2; maximal inhibitory response, DB cells, hIL-23 at EC80; read-out: hIL-23 (pSTAT3) antagonist % inhibition
*1 amine or outer side, *2 acyl side, *3 side chain or, on linkers, in order; H or OH if unused. Where a SMILES comes first, the peptide text is derived from it. Bridges are numbered along the chain shown (N, C = ends). [ ]: non-standard residue; d: D form. 2Nal = N[C@@H](Cc1ccc2ccccc2c1)C(=O)O; AEF = NCCOc1ccc(C[C@H](N)C(=O)O)cc1; X1 = O=C(Cc1ccc(CN[*:1])cc1)[*:2]; 3Pal = N[C@@H](Cc1cccnc1)C(=O)O; αMeL = CC(C)C[C@](C)(N)C(=O)O; CH2COCH2 = O=C(C[*:1])C[*:2]; 3Amb = NCc1cccc(C(=O)O)c1; Dab = NCC[C@H](N)C(=O)O
Property: Emax (%)

Compound: CC(=O)N[C@H]1CCCCNC(=O)CC[C@@H](C(=O)N[C@@H](CCN)C(=O)N[C@@H](Cc2cccnc2)C(N)=O)NC(=O)[C@](C)(CC(C)C)NC(=O)[C@H](Cc2ccc3ccccc3c2)NC(=O)[C@H](Cc2ccc(OCCN)cc2)NC(=O)[C@@H]2CSCC(=O)CSC[C@H](NC(=O)[C@H]([C@@H](C)O)NC1=O)C(=O)N[C@@H](Cc1c[nH]c3ccccc13)C(=O)N[C@@H](CCC(N)=O)C(=O)N2 [Ref 155, reference compound] (Ac-KTCWQC[AEF][2Nal][αMeL]E[Dab][3Pal]-NH2; lactam 1-10; linker 3-6 via CH2COCH2)
Test target: UniProt Q5VWK5
Property: Emax
Unit info: %
Observed measurement: 100
//
Compound: CC(C)C[C@]1(C)NC(=O)[C@H](Cc2ccc3ccccc3c2)NC(=O)[C@H](Cc2ccc(OCCN)cc2)NC(=O)[C@@H]2CCC(=O)N[C@@H](CCCCNC(=O)CC[C@@H](C(=O)N[C@@H](CCN)C(=O)N[C@@H](Cc3cccnc3)C(N)=O)NC1=O)C(=O)N[C@@H]([C@@H](C)O)C(=O)N[C@@H](C(C)C)C(=O)N[C@@H](Cc1c[nH]c3ccccc13)C(=O)N[C@@H](CCC(N)=O)C(=O)N2 [Compound 2] (KTVWQE[AEF][2Nal][αMeL]E[Dab][3Pal]-NH2; lactam 1-10, N-6)
Test target: UniProt Q5VWK5
Property: Emax
Unit info: %
Observed measurement: 99
//
Compound: CC(C)C[C@]1(C)NC(=O)[C@H](Cc2ccc3ccccc3c2)NC(=O)[C@H](Cc2ccc(OCCN)cc2)NC(=O)[C@@H]2CSCC(=O)CSC[C@H](NC(=O)[C@H](CO)NC(=O)Cc3ccc(cc3)CNC(=O)CC[C@@H](C(=O)N[C@@H](CCN)C(N)=O)NC1=O)C(=O)N[C@@H](Cc1c[nH]c3ccccc13)C(=O)N[C@@H](CCC(N)=O)C(=O)N2 [Ref 82, reference compound] ([X1]SCWQC[AEF][2Nal][αMeL]E[Dab]-NH2; linker 3-6 via CH2COCH2; lactam N-10)
Test target: UniProt Q5VWK5
Property: Emax
Unit info: %
Observed measurement: 97
//
Compound: CC(C)C[C@]1(C)NC(=O)[C@H](Cc2ccc3ccccc3c2)NC(=O)[C@H](Cc2ccc(OCCN)cc2)NC(=O)[C@@H]2CSCC(=O)CSC[C@H](NC(=O)[C@H](CO)NC(=O)c3cccc(c3)CNC(=O)CC[C@@H](C(=O)N[C@@H](CCCNC(=N)N)C(=O)N[C@@H](Cc3cccnc3)C(N)=O)NC1=O)C(=O)N[C@@H](Cc1c[nH]c3ccccc13)C(=O)N[C@@H](CCC(N)=O)C(=O)N2 [Ref 78, reference compound] ([3Amb]SCWQC[AEF][2Nal][αMeL]ER[3Pal]-NH2; linker 3-6 via CH2COCH2; lactam N-10)
Test target: UniProt Q5VWK5
Property: Emax
Unit info: %
Observed measurement: 100
//
Compound: CC(C)C[C@]1(C)NC(=O)[C@H](Cc2ccc3ccccc3c2)NC(=O)[C@H](Cc2ccc(OCCN)cc2)NC(=O)[C@@H]2CCNC(=O)CC[C@H](NC(=O)[C@H](CO)NC(=O)Cc3ccc(cc3)CNC(=O)CC[C@@H](C(=O)N[C@@H](CCN)C(=O)N[C@@H](Cc3cccnc3)C(N)=O)NC1=O)C(=O)N[C@@H](Cc1c[nH]c3ccccc13)C(=O)N[C@@H](CCC(N)=O)C(=O)N2 [Ref 122, reference compound]
Test target: UniProt Q5VWK5
Property: Emax
Unit info: %
Observed measurement: 99
//
Compound: CC(=O)N[C@H]1CCSC[C@@H](C(=O)N[C@@H](Cc2ccc(OCCN)cc2)C(=O)N[C@@H](Cc2c[nH]c3ccccc23)C(=O)N[C@@](C)(CCCCN)C(=O)N[C@@H](CCC(=O)O)C(=O)N[C@@H](CC(N)=O)C(=O)NCC(N)=O)NC(=O)[C@H](CCC(N)=O)NC(=O)[C@H](Cc2c[nH]c3ccccc23)NC(=O)[C@H]([C@@H](C)O)NC(=O)[C@H](CCC(N)=O)NC1=O [Compound C, reference compound]
Test target: UniProt Q5VWK5
Property: Emax
Unit info: %
Observed measurement: 99
//
Compound: CC(C)C[C@]1(C)NC(=O)[C@H](Cc2ccc3ccccc3c2)NC(=O)[C@H](Cc2ccc(OCCN)cc2)NC(=O)[C@@H]2CCNC(=O)CC[C@H](NC(=O)[C@H](CO)NC(=O)Cc3ccc(cc3)CNC(=O)CC[C@@H](C(=O)N[C@@H](CCN)C(N)=O)NC1=O)C(=O)N[C@@H](Cc1c[nH]c3ccccc13)C(=O)N[C@@H](CCC(N)=O)C(=O)N2 [Ref 125, reference compound]
Test target: UniProt Q5VWK5
Property: Emax
Unit info: %
Observed measurement: 98
//
Compound: CC(C)C[C@]1(C)NC(=O)[C@H](Cc2ccc3ccccc3c2)NC(=O)[C@H](Cc2ccc(OCCN)cc2)NC(=O)[C@@H]2CC(=O)N[C@H](CCCCNC(=O)CC[C@@H](C(=O)N[C@@H](CCN)C(=O)N[C@@H](Cc3cccnc3)C(N)=O)NC1=O)C(=O)N[C@@H]([C@@H](C)O)C(=O)N[C@@H](C(C)C)C(=O)N[C@@H](Cc1c[nH]c3ccccc13)C(=O)N[C@@H](CCC(N)=O)C(=O)N2 [Compound 3] ([dK]TVWQD[AEF][2Nal][αMeL]E[Dab][3Pal]-NH2; lactam 1-10, N-6)
Test target: UniProt Q5VWK5
Property: Emax
Unit info: %
Observed measurement: 101
//
Compound: CNC(=O)[C@H](Cc1cccnc1)NC(=O)[C@H](CCN)NC(=O)[C@@H]1CCC(=O)NCCCC[C@@H]2NC(=O)CC[C@H](NC(=O)[C@H](CCC(N)=O)NC(=O)[C@H](Cc3c[nH]c4ccccc34)NC(=O)CCNC2=O)C(=O)N[C@@H](Cc2ccc(OCCN)cc2)C(=O)N[C@@H](Cc2ccc3ccccc3c2)C(=O)N[C@@](C)(CC(C)C)C(=O)N1
Test target: UniProt Q5VWK5
Property: Emax
Unit info: %
Observed measurement: 100

###

Emax by entry:
Test target: human IL-23R (Homo sapiens)
Sequence (Q5VWK5 22-629): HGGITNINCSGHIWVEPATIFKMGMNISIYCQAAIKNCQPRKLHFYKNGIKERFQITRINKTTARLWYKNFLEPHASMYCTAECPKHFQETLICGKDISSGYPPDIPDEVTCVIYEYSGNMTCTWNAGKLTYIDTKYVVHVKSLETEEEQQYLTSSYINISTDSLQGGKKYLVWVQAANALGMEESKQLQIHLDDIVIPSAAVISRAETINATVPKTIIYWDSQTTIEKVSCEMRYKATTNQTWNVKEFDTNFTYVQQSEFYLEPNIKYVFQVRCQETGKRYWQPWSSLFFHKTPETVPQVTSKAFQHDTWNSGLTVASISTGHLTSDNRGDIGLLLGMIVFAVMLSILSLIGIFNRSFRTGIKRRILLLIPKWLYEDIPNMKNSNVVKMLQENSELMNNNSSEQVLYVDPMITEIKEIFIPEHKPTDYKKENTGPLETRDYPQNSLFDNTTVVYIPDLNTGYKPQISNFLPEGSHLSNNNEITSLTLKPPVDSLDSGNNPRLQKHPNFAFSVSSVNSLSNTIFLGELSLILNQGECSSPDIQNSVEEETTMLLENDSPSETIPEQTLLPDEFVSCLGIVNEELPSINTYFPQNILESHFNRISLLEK
Test method notes: biochemical
Assay context: read-out: % displacement (hIL-23R NIuc)
*1 amine or outer side, *2 acyl side, *3 side chain or, on linkers, in order; H or OH if unused. Where a SMILES comes first, the peptide text is derived from it. Bridges are numbered along the chain shown (N, C = ends). [ ]: non-standard residue; d: D form. X14 = O=C(CC[C@H](N[*:2])C(=O)[*:3])[*:1]; 2Nal = N[C@@H](Cc1ccc2ccccc2c1)C(=O)O; AEF = NCCOc1ccc(C[C@H](N)C(=O)O)cc1; 3Pal = N[C@@H](Cc1cccnc1)C(=O)O; αMeL = CC(C)C[C@](C)(N)C(=O)O; Dab = NCC[C@H](N)C(=O)O
Property: Emax (%)

Compound: CC[C@H](C)[C@@H]1NC(=O)[C@@H]2CCCCNC(=O)CC[C@@H](C(=O)N[C@@H](CCN)C(=O)NCCCc3cccnc3)NC(=O)[C@](C)(CC(C)C)NC(=O)[C@H](Cc3ccc4ccccc4c3)NC(=O)[C@H](Cc3ccc(OCCN)cc3)NC(=O)[C@H](CCC(=O)N2)NC(=O)[C@H](CCC(N)=O)NC(=O)[C@H](Cc2c[nH]c3ccccc23)NC(=O)[C@H](C(C)C)NC1=O
Observed measurement: 102

Compound: CC[C@H](C)[C@@H]1NC(=O)[C@@H]2CCCCNC(=O)CC[C@@H](C(=O)N[C@@H](CCN)C(=O)N[C@@H](Cc3cccnc3)C(=O)NC)NC(=O)[C@](C)(CC(C)C)NC(=O)[C@H](Cc3ccc4ccccc4c3)NC(=O)[C@H](Cc3ccc(OCCN)cc3)NC(=O)[C@H](CCC(=O)N2C)NC(=O)[C@H](CCC(N)=O)NC(=O)[C@H](Cc2c[nH]c3ccccc23)NC(=O)[C@H](C(C)C)NC1=O
Observed measurement: 101

Compound: CC[C@H](C)[C@@H]1NC(=O)[C@@H]2CCCCNC(=O)CC[C@@H](C(=O)N[C@@H](CCN)C(=O)NCCc3cccnc3)NC(=O)[C@](C)(CC(C)C)NC(=O)[C@H](Cc3ccc4ccccc4c3)NC(=O)[C@H](Cc3ccc(OCCN)cc3)NC(=O)[C@H](CCC(=O)N2)NC(=O)[C@H](CCC(N)=O)NC(=O)[C@H](Cc2c[nH]c3ccccc23)NC(=O)[C@H](C(C)C)NC1=O
Observed measurement: 101

Compound: CC[C@H](C)[C@@H]1NC(=O)[C@@H]2CCCCNC(=O)CC[C@@H](C(=O)N[C@@H](CCN)C(=O)N[C@@H](Cc3cccnc3)C(=O)NC)NC(=O)[C@](C)(CC(C)C)NC(=O)[C@H](Cc3ccc4ccccc4c3)NC(=O)[C@H](Cc3ccc(OC)cc3)NC(=O)[C@H](CCC(=O)N2)NC(=O)[C@H](CCC(N)=O)NC(=O)[C@H](Cc2c[nH]c3ccccc23)NC(=O)[C@H](C(C)C)NC1=O
Observed measurement: 98

Compound: CNC(=O)[C@H](Cc1cccnc1)NC(=O)[C@H](CCN)NC(=O)[C@@H]1CCC(=O)NCCCC[C@@H]2NC(=O)CC[C@H](NC(=O)[C@H](CCC(N)=O)NC(=O)[C@H](Cc3c[nH]c4ccccc34)NC2=O)C(=O)N[C@@H](Cc2ccc(OCCN)cc2)C(=O)N[C@@H](Cc2ccc3ccccc3c2)C(=O)N[C@@](C)(CC(C)C)C(=O)N1 [Compound 43] (KWQE[AEF][2Nal][αMeL]E[Dab][3Pal]-NHMe; lactam 1-8, N-4)
Observed measurement: 100

Compound: CNC(=O)[C@H](Cc1cccnc1)NC(=O)[C@H](CCN)NC(=O)[C@@H]1CCC(=O)NCCCC[C@@H]2NC(=O)CCC[C@H](NC(=O)[C@H](CCC(N)=O)NC(=O)[C@H](Cc3c[nH]c4ccccc34)NC(=O)[C@H]([C@@H](C)O)NC2=O)C(=O)N[C@@H](Cc2ccc(OCCN)cc2)C(=O)N[C@@H](Cc2ccc3ccccc3c2)C(=O)N[C@@](C)(CC(C)C)C(=O)N1
Observed measurement: 101

Compound: CNC(=O)[C@H](Cc1cccnc1)NC(=O)[C@H](Cc1ccccn1)NC(=O)[C@@H]1CCC(=O)NCCCC[C@@H]2NC(=O)CC[C@H](NC(=O)[C@H](CCC(N)=O)NC(=O)[C@H](Cc3c[nH]c4ccccc34)NC(=O)CCNC2=O)C(=O)N[C@@H](Cc2ccc(OCCN)cc2)C(=O)N[C@@H](Cc2ccc3ccccc3c2)C(=O)N[C@@](C)(CC(C)C)C(=O)N1
Observed measurement: 100

Compound: COc1ccc(C[C@@H]2NC(=O)[C@@H]3CCC(=O)N[C@@H](CCCCNC(=O)CC[C@@H](C(=O)N[C@@H](CCCCNC(=O)c4ccccn4)C(N)=O)NC(=O)[C@](C)(CC(C)C)NC(=O)[C@H](Cc4ccc5ccccc5c4)NC2=O)C(=O)N[C@@H]([C@@H](C)O)C(=O)N[C@@H](C(C)C)C(=O)N[C@@H](Cc2c[nH]c4ccccc24)C(=O)N[C@@H](CCC(N)=O)C(=O)N3)cc1
Observed measurement: 99

Compound: COc1ccc(C[C@@H]2NC(=O)[C@@H]3CCC(=O)N[C@@H](CCCCNC(=O)CC[C@@H](C(=O)N[C@@H](CCCCNC(=O)CCc4cccnc4)C(N)=O)NC(=O)[C@](C)(CC(C)C)NC(=O)[C@H](Cc4ccc5ccccc5c4)NC2=O)C(=O)N[C@@H]([C@@H](C)O)C(=O)N[C@@H](C(C)C)C(=O)N[C@@H](Cc2c[nH]c4ccccc24)C(=O)N[C@@H](CCC(N)=O)C(=O)N3)cc1
Observed measurement: 101

Compound: CNC(=O)[C@H](Cc1cccnc1)NC(=O)[C@H](CCN)NC(=O)[C@@H]1CCNC(=O)[C@@H]2CCC(=O)N[C@@H](Cc3c[nH]c4ccccc34)C(=O)N[C@@H](CCC(N)=O)C(=O)N[C@@H](CCC(=O)N2)C(=O)N[C@@H](Cc2ccc(OCCN)cc2)C(=O)N[C@@H](Cc2ccc3ccccc3c2)C(=O)N[C@@](C)(CC(C)C)C(=O)N1 [Compound 107] (WQE[AEF][2Nal][αMeL][Dab][Dab][3Pal]-NHMe; linker N-3-7 via X14)
Observed measurement: 97
